Data credit: patent US11919855B2

pIC50: −log10 of the molar value.
System: EED-EZH2 (Homo sapiens (Human), UniProt O75530) | Read-out: pIC50
Sequence (O75530 2-441): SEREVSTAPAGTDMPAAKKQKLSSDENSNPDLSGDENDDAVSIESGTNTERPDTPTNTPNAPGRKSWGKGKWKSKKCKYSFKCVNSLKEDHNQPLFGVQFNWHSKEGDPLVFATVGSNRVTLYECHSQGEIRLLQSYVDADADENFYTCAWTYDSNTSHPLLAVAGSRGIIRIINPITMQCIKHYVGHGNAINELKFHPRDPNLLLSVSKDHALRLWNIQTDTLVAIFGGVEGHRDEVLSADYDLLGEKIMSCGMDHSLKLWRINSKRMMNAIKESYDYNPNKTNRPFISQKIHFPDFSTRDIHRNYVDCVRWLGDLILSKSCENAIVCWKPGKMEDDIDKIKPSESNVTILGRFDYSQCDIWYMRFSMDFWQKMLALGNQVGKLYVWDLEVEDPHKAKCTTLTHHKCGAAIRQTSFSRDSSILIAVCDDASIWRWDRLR

[
  {
    "COMPOUND": "O=C(N[C@@H]1CCN(Cc2cccc(C(F)(F)F)c2)C1=O)c1cc(C(F)(F)F)ccc1O [NUCC-0226245]",
    "MEASUREMENT LABEL": "pIC50",
    "OBSERVED MEASUREMENT": "5.00 to 6.00"
  },
  {
    "COMPOUND": "O=C(NC1CCN(Cc2ccccc2C(F)(F)F)C1=O)c1cc(C(F)(F)F)ccc1O (stereo not shown) [NUCC-0223821]",
    "MEASUREMENT LABEL": "pIC50",
    "OBSERVED MEASUREMENT": "> 6.00"
  },
  {
    "COMPOUND": "O=C(N[C@@H]1CC(=O)N(Cc2cccc(C(F)(F)F)c2)C1)c1cc(C(F)(F)F)ccc1O [NUCC-0226235]",
    "MEASUREMENT LABEL": "pIC50",
    "OBSERVED MEASUREMENT": "5.00 to 6.00"
  }
]

Read the next record carefully.
Q: What is its pIC50 for EED-EZH2 (Homo sapiens (Human), UniProt O75530)? Entry: O=C(NC1CC(=O)N(Cc2ccccc2C(F)(F)F)C1)c1ccc(Br)c(O)c1 (stereo not shown) [NUCC-0202765]
A: < 4.30

* * *

This listing pairs compounds with measured pIC50.
Target: EED-EZH2 (Homo sapiens (Human))
Assay: EED-EZH2 AlphaScreen assay
Type: binding
Details: 8.7 nM EZH2, 5.0 nM EED, read-out: IC50 Potency Code
pIC50: −log10 of the molar value.

The cases that follow already have their pIC50 on record.
[
  {
    "COMPOUND": "O=C(NCC1CCC(=O)N1Cc1cccc(C(F)(F)F)c1)c1cc(C(F)(F)F)ccc1O (stereo not shown)",
    "TESTED SYSTEM": "EED-EZH2 (Homo sapiens (Human))",
    "OBSERVED MEASUREMENT": "5.00 to 6.00"
  },
  {
    "COMPOUND": "Cc1ccc(C(=O)NC2CC(=O)N(Cc3ccccc3C(F)(F)F)C2)c(O)c1 (stereo not shown)",
    "TESTED SYSTEM": "EED-EZH2 (Homo sapiens (Human))",
    "OBSERVED MEASUREMENT": "< 4.30"
  },
  {
    "COMPOUND": "Nc1ccc(Cl)cc1C(=O)NC1CC(=O)N(Cc2ccccc2C(F)(F)F)C1 (stereo not shown)",
    "TESTED SYSTEM": "EED-EZH2 (Homo sapiens (Human))",
    "OBSERVED MEASUREMENT": "< 4.30"
  }
]

Pending compound:
Q: What does the record list as pIC50 for O=C(NC1CC(=O)N(Cc2ccccc2[N+](=O)[O-])C1)c1cccnc1 (stereo not shown) ?
A: < 4.30

* * *

Molecular target: EED-EZH2 (Homo sapiens (Human))
Assay: EED-EZH2 AlphaScreen assay
Format: binding
Settings: 8.7 nM EZH2, 5.0 nM EED, read-out: IC50 Potency Code
MEASUREMENT LABEL: IC50

Would you please look over these solved cases?
[
  {
    "MOLECULE": "Cc1ccc(O)c(C(=O)N[C@H]2CC(=O)N(C3C=Cc4ccccc43)C2)c1 (stereo partly shown)",
    "OBSERVED MEASUREMENT": "10 to 50 µM"
  },
  {
    "MOLECULE": "COc1ccc(C)cc1C(=O)NC1CC(=O)N(Cc2ccc(Cl)c(Cl)c2)C1 (stereo not shown)",
    "OBSERVED MEASUREMENT": "> 50 µM"
  },
  {
    "MOLECULE": "Cc1ccc(O)c(C(=O)N[C@H]2CC(=O)N(C3CCc4ccccc43)C2)c1 (stereo partly shown)",
    "OBSERVED MEASUREMENT": "> 50 µM"
  }
]

Continue with the molecule presented below.
Q: I have this molecule here, Cc1cccc(O)c1C(=O)NC1CC(=O)N(Cc2ccccc2C(F)(F)F)C1 (stereo not shown) , and I need its recorded IC50.
A: > 50 µM

* * *

Biological target: UniProt:O75530
MEASUREMENT LABEL: IC50

Illustrative cases are given below, each with its answer.
[
  {
    "COMPOUND": "O=C(NC1CC(=O)N(Cc2ccccc2C(F)(F)F)C1)c1cnon1 (stereo not drawn) [NUCC-0202755]",
    "MEASUREMENT LABEL": "IC50",
    "OBSERVED MEASUREMENT": "> 50 µM"
  },
  {
    "COMPOUND": "O=C(NC1CC(=O)N(Cc2ccccc2C(F)(F)F)C1)c1ccc(Cl)c(Cl)c1 (stereo not drawn) [NUCC-0202670]",
    "MEASUREMENT LABEL": "IC50",
    "OBSERVED MEASUREMENT": "> 50 µM"
  }
]

Q: Name the reported IC50 value associated with the compound O=C(NC[C@@H]1CCC(=O)N1Cc1cccc(C(F)(F)F)c1)c1cc(C(F)(F)F)ccc1O [NUCC-0226241]
A: 1 to 10 µM
